# System: T1, hCEACAM5, human CEACAM5 ECD (35-685) (human, UniProt P06731 35-685)
# T1 construct: produced in HEK293; also called human CEACAM5 protein; human CEACAM5 extracellular domain
# T1 sequence: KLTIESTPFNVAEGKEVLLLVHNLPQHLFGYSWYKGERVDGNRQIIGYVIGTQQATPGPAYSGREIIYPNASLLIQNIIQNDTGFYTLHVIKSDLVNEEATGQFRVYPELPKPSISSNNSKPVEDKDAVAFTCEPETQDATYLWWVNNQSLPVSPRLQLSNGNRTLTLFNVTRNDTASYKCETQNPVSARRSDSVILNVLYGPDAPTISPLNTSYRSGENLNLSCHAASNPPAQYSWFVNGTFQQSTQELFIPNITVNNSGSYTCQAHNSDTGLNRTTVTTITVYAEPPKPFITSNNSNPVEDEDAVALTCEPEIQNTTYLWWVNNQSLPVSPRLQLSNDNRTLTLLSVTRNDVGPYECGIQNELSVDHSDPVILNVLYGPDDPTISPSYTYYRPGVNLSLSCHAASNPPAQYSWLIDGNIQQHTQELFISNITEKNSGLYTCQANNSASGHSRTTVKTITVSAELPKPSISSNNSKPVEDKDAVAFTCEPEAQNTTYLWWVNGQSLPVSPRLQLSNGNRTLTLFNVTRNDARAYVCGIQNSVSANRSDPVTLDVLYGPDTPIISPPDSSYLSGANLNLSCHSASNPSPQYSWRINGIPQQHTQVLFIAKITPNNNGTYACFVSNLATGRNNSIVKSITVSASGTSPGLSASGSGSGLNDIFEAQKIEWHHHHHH
# Assay Info: ELISA
Each entry below carries its recorded EC50.
Enter your answer as a number in pM; do not include the unit.

Recorded results for 3 binders are shown here.
Binder	EC50 / pM
huMAb2-1 (antibody, V domains shown, Humanized MAb2 (VL1 + VH1) fused to human IgG1 and human Ckappa constant domains; also called MAb2_VL1VH1-IgG1; MAb2VL1VH1-IgG1) VH: EVQLQESGPGLVKPGGSLSLSCAASGFVFSSYDMSWVRQTPERRLEWVAYISSGGGITYFPSTVKGRFTVSRDNAKNTLYLQMNSLTSEDTAIYYCAAHYFGSSGPFAYWGQGTLVTVSA VL: DIQMTQSPASLSASVGDTVTITCRASENIFSYLAWYQQKPGKSPKLLVYNTKTLAEGVPSRFSGSGSGTQFSLTISSLQPEDFGSYYCQHHYGTPFTFGSGTKLEIK	220
huMAb2-4 (antibody, human IgG1, kappa, V domains shown, Humanized MAb2, human IgG1 / Ckappa; also called MAb2_VL1d VH1-IgG1; MAb2_VL1dVH1-IgG1) VH: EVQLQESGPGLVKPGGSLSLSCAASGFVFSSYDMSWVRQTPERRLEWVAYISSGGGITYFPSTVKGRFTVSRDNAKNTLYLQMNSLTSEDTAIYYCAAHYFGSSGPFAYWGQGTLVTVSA VL: DIQMTQSPASLSASVGDTVTITCRASENIFSYLAWYQQKPGKSPKLLVYNTRTLAEGVPSRFSGSGSGTQFSLTISSLQPEDFGSYYCQHHYGTPFTFGSGTKLEIKR	220
huMAb2-3 (antibody, human IgG1, kappa, V domains shown, Humanized MAb2, human IgG1 / Ckappa; also called MAb2_VL1cVH1a-IgG1) VH: EVQLQESGPGLVKPGGSLSLSCAASGFVFSSYDMSWVRQTPERGLEWVAYISSGGGITYAPSTVKGRFTVSRDNAKNTLYLQMNSLTSEDTAVYYCAAHYFGSSGPFAYWGQGTLVTVSS VL: DIQMTQSPASLSASVGDRVTITCRASENIFSYLAWYQQKPGKSPKLLVYNTRTLAEGVPSRFSGSGSGTDFSLTISSLQPEDFATYYCQHHYGTPFTFGSGTKLEIKR	180

Shifting focus to the binder that follows.
Supply reported EC50 belonging to this binder: huMAb2-2 (antibody, V domains shown, Humanized MAb2 (VL1a + VH1a) fused to human IgG1 and human Ckappa constant domains; also called MAb2_VL1aVH1a-IgG1; MA2_VL1aVH1a-IgG1) VH: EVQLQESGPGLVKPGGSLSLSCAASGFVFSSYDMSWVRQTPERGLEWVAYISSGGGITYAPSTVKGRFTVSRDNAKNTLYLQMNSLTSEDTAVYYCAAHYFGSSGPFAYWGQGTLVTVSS VL: DIQMTQSPASLSASVGDRVTITCRASENIFSYLAWYQQKPGKSPKLLVYNTKTLAEGVPSRFSGSGSGTDFSLTISSLQPEDFATYYCQHHYGTPFTFGSGTKLEIK 200
